Species: Homo sapiens
Assay: To identify inhibition of the IFN signalling (Jak-Stat) pathway via expression of an eGFP reporter gene under the control of an IFN-stimulated response element (ISRE) containing MxA promoter.
Type: functional
Parameters: scale not given: direction of the effect not stated beside the values
Conditions: 30 µM
compounds and their reported Percent Effect

COMPOUND | Percent Effect [%]
CN(C)CC(=O)N1CCCC2(CCC(=O)N(CCc3c[nH]cn3)C2)C1 (stereo not drawn) | -2.33
COc1cc(C(=O)Nc2nc(C)no2)ccc1C | 33.2
N#Cc1cccc(S(=O)(=O)N2CCCCC2CCN2CCCC2=O)c1 (stereo not drawn) | -12.8

###

molecules and their reported Percent Effect
Species on record: Homo sapiens
Test: To identify inhibition of the IFN signalling (Jak-Stat) pathway via expression of an eGFP reporter gene under the control of an IFN-stimulated response element (ISRE) containing MxA promoter.
Assay type: functional
Design: scale not given: direction of the effect not stated beside the values
Settings: 30 µM
VALUE TYPE: Percent Effect

MOLECULE | VALUE TYPE | ENDPOINT RESULT
CCN(C(=O)CCCOc1ccccc1F)c1ccncc1 | Percent Effect | 11.9%
CCn1cnnc1C1CCN(C(=O)c2cnc(C3CC3)s2)CC1 | Percent Effect | -10.4%
CC(C)(C)c1n[nH]cc1CN1CCc2nc3ccsc3c(=O)n2CC1 | Percent Effect | 43.3%
Cn1ccnc1CN1CCN(c2ccc(C#N)cc2F)CC1 | Percent Effect | 17.8%
O=C(NCc1ccccc1F)N1CCC(C2OCCO2)CC1 | Percent Effect | -6.9%
Cc1c(C(=O)N2CCCC2c2cnn(C)c2)nnn1-c1ccccc1 (stereo not drawn) | Percent Effect | 8.27%
Cc1ccc(CN2CC[C@H]3[C@@H]2CCC(=O)N3CCN2CCCC2)s1 | Percent Effect | 7.46%
O=C(c1ccccc1-c1ccccc1)N1CCOC2(CNCCOC2)C1 (stereo not drawn) | Percent Effect | 1.86%
COc1ccc(OC)c(CNCCc2cc(F)cc3c2OCOC3)c1 | Percent Effect | 4.72%
COc1ccccc1C(=O)NC(CC(=O)O)c1cccs1 (stereo not drawn) | Percent Effect | -5.53%
Cc1ccc(C(=O)NS(=O)(=O)c2ccccc2C)c(=O)[nH]1 | Percent Effect | 15.8%
N#Cc1ccc(C(=O)N2CCC3(CC2)C(=O)Nc2ccccc23)cn1 | Percent Effect | 0.335%
CNS(=O)(=O)c1ccc(C(=O)NCCNc2ncccn2)cc1 | Percent Effect | -4.68%
CNC(=O)NC(=O)CN1CCC(c2c[nH]c3ccc(OC)cc23)CC1 | Percent Effect | 7.02%
CC(C)n1ccnc1CN1CCCN(C(=O)CC2C=CCC2)CC1 (stereo not drawn) | Percent Effect | 9.57%
O=C(NCc1cccs1)C1CN(C(=O)c2cccs2)CC12CCOCC2 (stereo not drawn) | Percent Effect | -4.96%
CCN(CC)C(=O)c1cc(C2CCCN2C)ccn1 (stereo not drawn) | Percent Effect | -5.61%
COc1c(CNC(c2ccc(F)cc2)C(C)(C)C)c(C)nn1C (stereo not drawn) | Percent Effect | 30.8%
O=C(NCc1ccccn1)NC1CCOc2ccccc21 (stereo not drawn) | Percent Effect | 12%
COc1cc(C(=O)NS(=O)(=O)c2cccc(C#N)c2)ccc1C | Percent Effect | 10.3%
COc1ncccc1NC(=O)NC1CCOc2ccccc21 (stereo not drawn) | Percent Effect | 23.4%
CC(=O)N1CCC2(CC1)CC(Oc1ccccc1)CO2 (stereo not drawn) | Percent Effect | 1.3%
Cc1ccccc1C(=O)Nc1cnn(CC(=O)NC2CCCC2)c1 | Percent Effect | 6.03%
CC(C)NC(=O)N1CCN(S(=O)(=O)C2CC2)CC2(CNC(=O)C2)C1 (stereo not drawn) | Percent Effect | 9.81%
CN(Cc1ccc(Cl)s1)C(=O)NCc1nnc2n1CCC2 | Percent Effect | 0.395%
CCN(C)c1ncnc2c1CCN(C(=O)c1ccno1)CC2 | Percent Effect | -5.04%
Cc1nn(C)c(C)c1CC(=O)N1CCC(N(C)c2cccnn2)CC1 | Percent Effect | 42.1%
Cc1occc1C(=O)N1CCC2(CCN(Cc3nccs3)C2)CC1 | Percent Effect | -23.6%
Cc1ccn(-c2ccc(C(=O)N3CCCC(n4ccnc4)C3)cc2)n1 (stereo not drawn) | Percent Effect | 1.73%
c1ccc(-c2nc(CN3CCCC(Cn4cncn4)C3)no2)cc1 (stereo not drawn) | Percent Effect | 0.0835%
Cn1ncc2c1CCCC2NCc1cc(Br)cs1 (stereo not drawn) | Percent Effect | 5.32%
CCC(=O)N(C)C1CCN(Cc2ncc(C)c(OC)c2C)CC1 | Percent Effect | 16.3%
CN(Cc1nnc2n1CCC2)C(=O)NCCc1ccc2c(c1)OCO2 | Percent Effect | 18.3%
CC(C)(C)n1ncc2c1CCCC2NCc1cccc2c1OCO2 (stereo not drawn) | Percent Effect | 12.2%
CC(=O)N1CCN(Cc2csc(-c3cnn(C)c3)n2)CC1 | Percent Effect | 3.43%
O=c1c2sccc2nc2n1CCN(Cc1cccs1)CC2 | Percent Effect | 12.6%
COc1cccc(CN(C)C(=O)CN2CC(n3nc(C)cc3C)C2)c1 | Percent Effect | 23.1%
CCc1nc(C2CCCN2Cc2nc(CCOC)no2)no1 (stereo not drawn) | Percent Effect | -6.27%

###

Target: Chromo domain-containing protein 1 (Saccharomyces cerevisiae (strain ATCC 204508 / S288c) (Baker's yeast)) (UniProt P32657)
Sequence (P32657 whole entry, the tested form may be a part): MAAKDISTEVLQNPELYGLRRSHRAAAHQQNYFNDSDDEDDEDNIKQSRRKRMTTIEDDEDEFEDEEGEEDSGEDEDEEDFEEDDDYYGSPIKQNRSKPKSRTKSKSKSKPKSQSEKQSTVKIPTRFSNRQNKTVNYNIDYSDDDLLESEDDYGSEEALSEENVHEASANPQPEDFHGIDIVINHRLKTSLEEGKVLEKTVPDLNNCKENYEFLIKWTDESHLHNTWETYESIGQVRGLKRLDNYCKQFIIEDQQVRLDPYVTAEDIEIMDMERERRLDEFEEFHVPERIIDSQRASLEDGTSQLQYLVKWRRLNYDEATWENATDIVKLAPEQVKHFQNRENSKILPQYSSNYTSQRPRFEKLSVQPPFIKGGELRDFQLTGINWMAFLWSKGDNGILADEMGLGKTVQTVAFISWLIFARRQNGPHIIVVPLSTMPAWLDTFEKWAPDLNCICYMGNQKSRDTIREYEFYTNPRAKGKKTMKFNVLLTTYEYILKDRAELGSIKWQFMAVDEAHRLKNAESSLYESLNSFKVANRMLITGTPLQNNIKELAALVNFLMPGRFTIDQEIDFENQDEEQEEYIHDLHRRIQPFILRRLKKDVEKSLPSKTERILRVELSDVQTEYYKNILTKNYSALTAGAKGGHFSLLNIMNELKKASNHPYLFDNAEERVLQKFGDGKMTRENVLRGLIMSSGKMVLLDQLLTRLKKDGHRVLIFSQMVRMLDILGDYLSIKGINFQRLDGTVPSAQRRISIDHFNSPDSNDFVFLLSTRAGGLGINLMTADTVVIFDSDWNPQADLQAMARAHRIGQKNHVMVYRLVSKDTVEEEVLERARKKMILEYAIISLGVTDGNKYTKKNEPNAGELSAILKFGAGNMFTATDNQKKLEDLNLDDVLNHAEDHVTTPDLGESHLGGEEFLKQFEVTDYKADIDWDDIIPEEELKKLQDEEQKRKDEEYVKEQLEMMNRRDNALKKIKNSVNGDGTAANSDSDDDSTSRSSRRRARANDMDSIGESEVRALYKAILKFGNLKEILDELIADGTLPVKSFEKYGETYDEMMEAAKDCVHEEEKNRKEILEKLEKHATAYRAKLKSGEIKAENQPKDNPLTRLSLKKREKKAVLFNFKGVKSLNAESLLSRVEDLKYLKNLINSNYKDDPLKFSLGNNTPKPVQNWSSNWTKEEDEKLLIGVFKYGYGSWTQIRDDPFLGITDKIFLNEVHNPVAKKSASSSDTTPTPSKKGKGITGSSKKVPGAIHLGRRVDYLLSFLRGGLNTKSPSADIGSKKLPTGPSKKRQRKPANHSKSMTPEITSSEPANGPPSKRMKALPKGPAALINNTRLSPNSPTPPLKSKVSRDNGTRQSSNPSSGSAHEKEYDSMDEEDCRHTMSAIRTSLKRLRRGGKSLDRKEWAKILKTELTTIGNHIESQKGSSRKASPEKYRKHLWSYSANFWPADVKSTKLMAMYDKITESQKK
Experiment: ScCHD-1 Enzyme Inhibition Assay; note: in the data most compounds retested in dose-response had high values
Format: functional
Set-up: scale not given: direction of the effect not stated beside the values
Conditions: 30 µM

MOLECULE | Percent Effect (%)
c1coc(-c2noc(CN3CCC(c4ccn[nH]4)CC3)n2)c1 | -4.25
CCN1CCN(S(=O)(=O)c2cc(C)c(Cl)cc2Cl)CC1 | 4.8
COc1ccc(CN2CCC3(CC2)CCN(c2ncccn2)CC3)cc1 | 6.6
Cc1ncoc1C(=O)N1C[C@H]2CCC[C@@]2(COCC2CCOCC2)C1 | 5.48
CN(C)C(=O)[C@H]1C[C@@H]2CN(S(=O)(=O)Cc3ccccc3)C[C@H]1O2 | -6.01
Cc1noc(C)c1-c1cncc(C2CCCN2Cc2ccncc2)n1 (centres undefined) | -9.13
CN1CCN(C(=O)CC2CCN(CCc3ccccn3)CC2)CC1 | -17.3
c1ccc(C2CCN(c3cncc(-n4cccn4)n3)CC2)cc1 | -4.19
O=C(Nc1nccs1)N1CCCC(N2CCNC2=O)C1 (centres undefined) | -6.39

###

Biological target: Tyrosyl-tRNA synthetase, putative (Trypanosoma cruzi (strain CL Brener))
Assay: Trypanosoma cruzi tyrosyl tRNA synthetase (TcYRS) _High Tyrosine SOP; note: in the data most compounds retested in dose-response had high values
Type: functional
Parameters: scale not given: direction of the effect not stated beside the values
Settings: 30 µM

COMPOUND | Percent Effect
Cc1ccc(CN2C[C@@H]3COC[C@@H](NS(C)(=O)=O)[C@@H]3C2)o1 | 1.04%
CCC(C)c1noc(C2CCN(C(=O)c3cccs3)CC2)n1 (stereo unspecified) | 4.3%
Cn1nc2c(cc1=O)CN(Cc1coc(-c3cccs3)n1)CC2 | -2.46%
CN(CCO)C[C@@H]1CN(C(=O)c2c(F)cccc2Cl)C[C@@H]1CO | 3.23%
CNC(=O)NC(=O)CN1CCC(c2c[nH]c3ccc(OC)cc23)CC1 | 9.29%
CC(C)OCCCNC(=O)c1ccc(-c2ccco2)[nH]c1=O | 6.4%

###

Biological target: Arginase-2, mitochondrial (Homo sapiens)
Assay: in vitro enzyme assay to detect the production of urea directly proportional to the activity of Arginase II; note: in the data most compounds retested in dose-response had high values
Assay type: functional
Set-up: scale not given: direction of the effect not stated beside the values
Details: 33.3 µM
VALUE TYPE: Percent Effect (%)

COMPOUND | ENDPOINT RESULT
CC1CN(C(=O)CN(Cc2ccccc2Br)C2CC2)CCO1 (centres undefined) | -3.16
Cc1c[nH]cc1C(=O)N1CCN(Cc2nc(C(C)C)no2)CC1 | -2.77
O=C1OC2(CCN(C3CCCOC3)CC2)CN1CCc1ccccc1 (centres undefined) | -11
Cc1ccc(N2CCCC(NCC(=O)NCC3CC3)C2)nn1 (centres undefined) | -1.94

###

compounds and their reported Percent Effect
Organism: Homo sapiens
Test: To identify inhibition of the IFN signalling (Jak-Stat) pathway via expression of an eGFP reporter gene under the control of an IFN-stimulated response element (ISRE) containing MxA promoter.
Assay type: functional
Parameters: scale not given: direction of the effect not stated beside the values
Details: 30 µM
VALUE TYPE: Percent Effect (%)

COMPOUND | RESULT UNITS | ENDPOINT RESULT
COCCOc1ccc(NC(=O)C2CC(=O)N(C)C2)cn1 (configuration not stated) | % | 23.3
CNc1nc(CNC(=O)Nc2cccc(F)c2)cs1 | % | 1.99
Cc1nn(C)c(Cl)c1C1CCCN1c1ncnc2sccc12 (configuration not stated) | % | 35.8
CN(CCOc1cccc(CNC(=O)C2CC2)c1)C1CCOCC1 | % | -3.27
CCCNC(=O)Cn1cc(-c2ccccc2)cn1 | % | 8.94
Cn1cnnc1C1CCN(C(=O)CCCOc2ccccc2F)CC1 | % | 14.2
CCOCCn1nnc(C2(NC(=O)c3ccccc3)CCCC2)n1 | % | -0.698
O=C(c1cc(Cl)c2c(c1)OCO2)N1CCN(c2ccccn2)CC1 | % | 14.1
Cc1cc(C)c2c(c1)C1(CC(=O)Nc3c1cnn3C(C)C)C(=O)N2 (configuration not stated) | % | 21.1
CCc1nnc2n1CCN(CC(=O)Nc1sccc1C#N)C2 | % | -5.63
Cc1nc(CN2CCN(C(=O)c3cc(C4CC4)on3)CC2)cs1 | % | -4.72
CN1CCOC(CNCc2cccc(OCC(F)(F)F)c2)C1 (configuration not stated) | % | 0.0497
